Documented Emax across a set of compounds
EXPERIMENTAL_SYSTEM: human muscarinic M3 receptor (Homo sapiens)
Construct: expressed in transfected cells
Sequence (P20309 whole entry): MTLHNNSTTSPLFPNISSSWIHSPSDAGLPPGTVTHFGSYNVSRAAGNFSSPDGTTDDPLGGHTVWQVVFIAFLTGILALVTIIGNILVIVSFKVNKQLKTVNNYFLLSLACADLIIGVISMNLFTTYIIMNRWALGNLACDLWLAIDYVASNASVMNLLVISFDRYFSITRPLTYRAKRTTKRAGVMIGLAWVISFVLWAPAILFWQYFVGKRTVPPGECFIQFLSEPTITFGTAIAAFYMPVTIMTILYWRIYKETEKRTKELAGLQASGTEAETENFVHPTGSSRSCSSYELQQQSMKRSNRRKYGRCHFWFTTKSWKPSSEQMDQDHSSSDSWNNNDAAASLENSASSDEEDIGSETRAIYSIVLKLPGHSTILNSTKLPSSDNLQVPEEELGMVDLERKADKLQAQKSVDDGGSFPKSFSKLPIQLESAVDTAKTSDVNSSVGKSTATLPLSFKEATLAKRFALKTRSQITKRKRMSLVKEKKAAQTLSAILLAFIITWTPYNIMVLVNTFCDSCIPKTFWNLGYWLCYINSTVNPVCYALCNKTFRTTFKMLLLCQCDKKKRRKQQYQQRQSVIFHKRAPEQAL
MEASUREMENT_DESCRIPTION: Alphascreen Surefire phospho-ERK1/2 functional assay, M3
Type: cell-based
CONDITION_CONTEXT: CHO, read-out: % Emax cf. ACh, M3
Provide the reading as a plain figure in %.

COMPOUND	Emax, %
CCOC(=O)N1CC2CC(N3CCC(C(=O)NC4(C)CCC4)CC3)CC2C1 (mixture of isomers) [Example 8 - mixture of diastereomers]	8
CCOC(=O)N1C2CCC1CC(N1CCC(C(=O)NC3(C)CCC3)CC1)C2 (single isomer, unassigned) [Example 1 - Isomer 2]	18
CCOC(=O)N1CCC2(CC(N3CCC(F)(C(=O)NC4(C)CCC4)CC3)C2)C1 (mixture of isomers) [Example 11 - mixture of diastereomers]	4

# input for lookup
Per the record, CCOC(=O)N1[C@@H]2CCC[C@H]1CC(N1CCC(C(=O)NC3(C)CCC3)CC1)C2 (mixture of isomers) [Example 6 - mixture of diastereomers] has Emax of 5

###

EXPERIMENTAL_SYSTEM: human muscarinic M4 receptor (Homo sapiens, UniProt P08173)
Construct: expressed in transfected cells
Sequence (P08173 whole entry): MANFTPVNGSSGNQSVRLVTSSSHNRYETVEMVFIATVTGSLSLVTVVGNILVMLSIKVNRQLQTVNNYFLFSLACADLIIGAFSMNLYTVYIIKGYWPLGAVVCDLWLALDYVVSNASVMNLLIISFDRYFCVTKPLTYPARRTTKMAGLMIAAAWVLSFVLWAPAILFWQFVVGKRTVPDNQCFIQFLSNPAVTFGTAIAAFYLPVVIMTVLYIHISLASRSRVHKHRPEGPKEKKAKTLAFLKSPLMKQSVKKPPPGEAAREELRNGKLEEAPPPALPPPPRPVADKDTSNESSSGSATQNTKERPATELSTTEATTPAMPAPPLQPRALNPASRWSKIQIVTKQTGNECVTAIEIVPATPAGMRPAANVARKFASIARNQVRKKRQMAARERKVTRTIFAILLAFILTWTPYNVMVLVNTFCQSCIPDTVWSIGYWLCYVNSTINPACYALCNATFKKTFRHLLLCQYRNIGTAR
MEASUREMENT_DESCRIPTION: Alphascreen Surefire phospho-ERK1/2 functional assay, M4
Type: cell-based
CONDITION_CONTEXT: CHO, read-out: % Emax cf. ACh, M4
MEASURED_PROPERTY: Emax (%)
Provide the reading as a plain figure in %.

Per the record, CCOC(=O)N1CC2(CCC(N3CCC(C(=O)NC4(C)CCC4)CC3)C2)C1 (racemic) [Example 12 - racemic] has Emax of 49

Per the record, CCOC(=O)N1CCC2(CC(N3CCC(C(=O)NCC4CCC4)CC3)C2)C1 (mixture of isomers) [Example 19 - mixture of diastereomers] has Emax of 42

Per the record, CCOC(=O)N1CCC2(CC(N3CCC(C(=O)NC4(C)CCC4)CC3)C2)C1 (mixture of isomers) [Example 9 - mixture of diastereomers] has Emax of 66

Per the record, [2H]C([2H])([2H])C1(NC(=O)C2CCN(C3CC4(CCN(C(=O)OCC)C4)C3)CC2)C([2H])([2H])C([2H])([2H])C1([2H])[2H] (single isomer, unassigned) [Example 22 - Isomer 2] has Emax of 67
